# TARGET_DESC: T1, human G-CSF receptor (human, UniProt Q99062 25-836)
# T1 sequence (looked up): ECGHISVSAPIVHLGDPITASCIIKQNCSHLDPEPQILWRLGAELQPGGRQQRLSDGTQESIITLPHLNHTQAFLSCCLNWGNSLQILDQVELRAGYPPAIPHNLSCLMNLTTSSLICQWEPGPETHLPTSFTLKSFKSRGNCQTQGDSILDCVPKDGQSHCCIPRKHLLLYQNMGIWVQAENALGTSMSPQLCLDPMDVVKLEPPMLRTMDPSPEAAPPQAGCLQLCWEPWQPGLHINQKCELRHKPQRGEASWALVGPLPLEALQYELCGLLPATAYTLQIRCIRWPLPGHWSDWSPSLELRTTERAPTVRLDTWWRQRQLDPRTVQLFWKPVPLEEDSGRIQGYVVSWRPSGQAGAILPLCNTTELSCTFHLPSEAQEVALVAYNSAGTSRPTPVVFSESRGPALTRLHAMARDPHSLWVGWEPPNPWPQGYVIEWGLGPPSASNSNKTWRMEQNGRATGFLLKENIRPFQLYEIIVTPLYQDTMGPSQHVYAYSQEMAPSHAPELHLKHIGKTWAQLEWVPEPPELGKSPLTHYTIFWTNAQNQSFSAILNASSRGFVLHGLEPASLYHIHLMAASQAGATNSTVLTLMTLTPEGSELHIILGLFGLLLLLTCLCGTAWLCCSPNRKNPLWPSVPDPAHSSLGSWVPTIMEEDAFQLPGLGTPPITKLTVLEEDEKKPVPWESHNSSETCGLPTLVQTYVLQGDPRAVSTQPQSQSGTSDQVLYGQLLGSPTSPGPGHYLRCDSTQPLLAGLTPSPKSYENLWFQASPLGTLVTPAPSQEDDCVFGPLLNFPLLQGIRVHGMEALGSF
# PROTOCOL: cell-based or functional assay
VALUE_KIND: EC50 (% of hG-CSF) conjugated to SPA-PEG 5000

Record excerpt, results attached:
QUERY: For G-CSF variant K16/23/40R conjugated to SPA-PEG 5000 (ligand, SPA-PEG 5000 conjugated to the available PEGylation sites) TPLGPASSLPQSFLLRCLEQVRRIQGDGAALQEKLCATYRLCHPEELVLLGHSLGIPWAPLSSCPSQALQLAGCLSQLHSGLFLYQGLLQALEGISPELGPTLDTLQLDVADFATTIWQQMEELGMAPALQPTQGAMPAFASAFQRRAGGVLVASHLQSFLEVSYRVLRHLAQP , what is its reported EC50 (% of hG-CSF) conjugated to SPA-PEG 5000?
RESULT: 5 % of hG-CSF

QUERY: G-CSF variant K16/34/40R Q70K Q90K T133K conjugated to SPA-PEG 5000 (ligand, SPA-PEG 5000 conjugated to the available PEGylation sites) TPLGPASSLPQSFLLRCLEQVRKIQGDGAALQERLCATYRLCHPEELVLLGHSLGIPWAPLSSCPSQALKLAGCLSQLHSGLFLYQGLLKALEGISPELGPTLDTLQLDVADFATTIWQQMEELGMAPALQPKQGAMPAFASAFQRRAGGVLVASHLQSFLEVSYRVLRHLAQP ?
RESULT: 5 % of hG-CSF

QUERY: Same for G-CSF variant K16/34/40R S76 conjugated to SPA-PEG 5000 (ligand, SPA-PEG 5000 conjugated to the available PEGylation sites) TPLGPASSLPQSFLLRCLEQVRKIQGDGAALQERLCATYRLCHPEELVLLGHSLGIPWAPLSSCPSQALQLAGCLKQLHSGLFLYQGLLQALEGISPELGPTLDTLQLDVADFATTIWQQMEELGMAPALQPTQGAMPAFASAFQRRAGGVLVASHLQSFLEVSYRVLRHLAQP
RESULT: 20 % of hG-CSF

QUERY: And G-CSF variant K16/34/40R S62K conjugated to SPA-PEG 5000 (ligand, SPA-PEG 5000 conjugated to the available PEGylation sites) TPLGPASSLPQSFLLRCLEQVRKIQGDGAALQERLCATYRLCHPEELVLLGHSLGIPWAPLKSCPSQALQLAGCLSQLHSGLFLYQGLLQALEGISPELGPTLDTLQLDVADFATTIWQQMEELGMAPALQPTQGAMPAFASAFQRRAGGVLVASHLQSFLEVSYRVLRHLAQP ?
RESULT: 0.5 % of hG-CSF

Further cases:
QUERY: GET /values?readout=EC50 (% of hG-CSF) conjugated to SPA-PEG 5000&item= G-CSF variant K16/34/40R Q120K T133K S142K conjugated to SPA-PEG 5000 (ligand, SPA-PEG 5000 conjugated to the available PEGylation sites) TPLGPASSLPQSFLLRCLEQVRKIQGDGAALQERLCATYRLCHPEELVLLGHSLGIPWAPLSSCPSQALQLAGCLSQLHSGLFLYQGLLQALEGISPELGPTLDTLQLDVADFATTIWQKMEELGMAPALQPKQGAMPAFAKAFQRRAGGVLVASHLQSFLEVSYRVLRHLAQP
RESULT: 1 % of hG-CSF

QUERY: Same read-out for G-CSF variant K16/34/40R T105K conjugated to SPA-PEG 5000 (ligand, SPA-PEG 5000 conjugated to the available PEGylation sites) TPLGPASSLPQSFLLRCLEQVRKIQGDGAALQERLCATYRLCHPEELVLLGHSLGIPWAPLSSCPSQALQLAGCLSQLHSGLFLYQGLLQALEGISPELGPTLDKLQLDVADFATTIWQQMEELGMAPALQPTQGAMPAFASAFQRRAGGVLVASHLQSFLEVSYRVLRHLAQP ?
RESULT: 10 % of hG-CSF

FYI, the data here is from patent US20030118612A1.
